Molecular target: T1, MTSP-1 (UniProt Q9Y5Y6 615-855, limits assumed)
T1 sequence (looked up): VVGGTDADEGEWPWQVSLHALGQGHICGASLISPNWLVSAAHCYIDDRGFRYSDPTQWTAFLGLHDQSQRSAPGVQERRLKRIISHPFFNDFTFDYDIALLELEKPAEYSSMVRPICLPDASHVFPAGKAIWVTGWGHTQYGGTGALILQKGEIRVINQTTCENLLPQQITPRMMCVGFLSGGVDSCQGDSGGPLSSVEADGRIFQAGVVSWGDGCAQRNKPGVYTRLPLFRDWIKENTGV
Assay: cell-based or functional assay
EXPERIMENTAL READOUT: activity against protease in selectivity screen (enzyme assay)

BINDER	ENDPOINT VALUE
C9 IgG1 antibody (Fab C9 reformatted) (antibody, V domains shown) VH: EVQLLESGGGLVQPGGSLRLSCAASGFTFSRYPMFWVRQAPGKGLEWVSYISSSGGFTGYADSVKGRFTISRDNSKNTLYLQMNSLRAEDTAVYYCARGGPRGNKYYFDYWGQGTLVTVSS VL: QSVLTQPASVSGSPGQSITISCTGTSSDVGHYNYVSWYQQHPGKAPKVMIYDVSSRPSGVSDRFSGSKSGNTASLAISGLQAEDEADYYCSSYTSGDTLYVFGTGTKVTVLG	< 5%

Hello, the source for this data is patent US20080019962A1, in case you need it.
